Target: C3a anaphylatoxin chemotactic receptor (Homo sapiens, UniProt Q16581)
Sequence (Q16581 whole entry): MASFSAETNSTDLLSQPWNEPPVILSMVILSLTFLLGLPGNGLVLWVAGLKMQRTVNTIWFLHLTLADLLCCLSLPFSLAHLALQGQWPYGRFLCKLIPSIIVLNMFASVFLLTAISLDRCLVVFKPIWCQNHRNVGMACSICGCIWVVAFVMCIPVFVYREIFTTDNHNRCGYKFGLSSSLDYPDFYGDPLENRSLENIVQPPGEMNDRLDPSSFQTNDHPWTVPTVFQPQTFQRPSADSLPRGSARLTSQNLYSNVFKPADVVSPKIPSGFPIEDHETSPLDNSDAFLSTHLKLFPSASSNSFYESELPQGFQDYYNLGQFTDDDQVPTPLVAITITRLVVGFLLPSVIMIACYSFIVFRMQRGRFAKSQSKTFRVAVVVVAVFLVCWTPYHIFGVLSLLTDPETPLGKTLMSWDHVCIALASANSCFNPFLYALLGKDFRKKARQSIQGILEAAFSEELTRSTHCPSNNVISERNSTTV
Experiment: Antagonist at C3a receptor in human LAD2 cells assessed as inhibition of C3a-induced beta-hexosaminidase release preincubated for 30 mins followed by C3a addition
Format: cell-based
Provide the reported pIC50 of each item.
Give bare numbers, as −log10 of the molar value.

// below: answered compounds
| Compound structure | Test target | pIC50 |
| --- | --- | --- |
| N=C(N)NCCC[C@H](NC(=O)COCC(c1ccccc1)c1ccccc1)C(=O)O | C3a anaphylatoxin chemotactic receptor (Homo sapiens, UniProt Q16581) | 6.27 |
| N=C(N)NCCC[C@H](NC(=O)c1ccc(C(c2ccccc2)c2ccccc2)s1)C(=O)O | C3a anaphylatoxin chemotactic receptor (Homo sapiens, UniProt Q16581) | 8.40 |
| Cc1cc(C(c2ccccc2)c2ccccc2)sc1C(=O)N[C@@H](CCCNC(=N)N)C(=O)O | C3a anaphylatoxin chemotactic receptor (Homo sapiens, UniProt Q16581) | 8.70 |

Kindly consider the entry below.
Enquiry: Output pIC50 of `Cc1cc(C(c2ccc(Cl)cc2)c2ccc(Cl)cc2)sc1C(=O)N[C@@H](CCCNC(=N)N)C(=O)O`
Return: 8.10

Data provenance: ChEMBL document CHEMBL4376878
